# system under test: T1, recombinant HMG1 produced in E. coli as calmodulin binding protein (CBP) fusion (human)
# T1 chain: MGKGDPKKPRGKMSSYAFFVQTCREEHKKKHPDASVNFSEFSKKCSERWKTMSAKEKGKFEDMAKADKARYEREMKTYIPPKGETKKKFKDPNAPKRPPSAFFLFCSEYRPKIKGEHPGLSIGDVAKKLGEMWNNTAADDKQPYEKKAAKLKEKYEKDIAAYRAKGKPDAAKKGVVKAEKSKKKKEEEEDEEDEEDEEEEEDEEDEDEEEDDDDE
# assay text: cell-based or functional assay
quantity name: IC50, inhibition of rHMG1 stimulated IL-6 release from human PBMCs (nM)
One number for each entry, in nM.

>>> value_measured("anti-HMG1 antibody S14 (antibody, V domains shown) VH: EVQLLESGGGLVQPGGSLRLSCAASGFTFSWYETGWVRQAPGKGLEWVSGISPSGGYTQYADSVKGRFTISRDNSKNTLYLQMNSLRAEDTAVYYCARSGVGATKIFDYWGQGTLVTVSS VL: DIQMTQSPSSLSASVGDRVTIICRANERINTYLNWYQQKPGKAPKLLISGTSSLESGVPSRFSGSGSGTEFTLSISSLQPEDFASYYCQQSYSSPYTFGQGTNLEIR")
0.191
>>> value_measured("anti-HMG1 antibody G9 (antibody, V domains shown) VH: EVQLLESGGGLVQPGGSLRLSCAASGFTFSSYDMFWVRQAPGKGLEWVSRISPSGGYTYYADSVKGRFTISRDNSKNTLYLQMNSLRAEDTAVYYCARLRYFDSRGYAFDIWGQGTMVTVSS VL: DIQMTQSPGTLSLSPGERATLSCRASQSVRSSYLAWYQQKPGQAPRLLIYGASTRATGIPDRFSGSGSGTDFTLTISRLEPEDFAVYYCQQYGTSRWTFGQGTKVEIK")
0.246

Here's the next entry for you.
Look up IC50, inhibition of rHMG1 stimulated IL-6 release from human PBMCs: anti-HMG1 antibody S10 (antibody, V domains shown) VH: EVQLLESGGGLVQPGGSLRLSCAASGFTFSWYDMWWVRQAPGKGLEWVSWIVPSGGITAYADSVKGRFTISRDNSKNTLYLQMNSLRAEDTATYYCARGNYGPSPFDYWGQGTLVTVSS VL: DIQMTQSPGTLSLSPGERATLSCRATQSVRKNFLAWYQQKPGQAPRLLIYDASSRATGIPDRFSGSGSGTDFTLTISRLEPEDFAVYYCQQYGNSPIIFGQGTRLEIK
0.324
